From: patent US7432045B2

system: H5 Avian Influenza virus; details: dog
pIC50: −log10 of the molar value. Peptide text beside a SMILES is read from it.

compound | pIC50
CC(C)C[C@H](NC(=O)[C@H](C)NC(=O)[C@H](CC(C)C)NC(=O)[C@H](CC(C)C)NC(=O)[C@@H](NC(=O)[C@H](C)NC(=O)[C@@H]1CCCN1C(=O)[C@H](CC(C)C)NC(=O)[C@H](CC(C)C)NC(=O)[C@H](C)NC(=O)[C@@H](NC(=O)[C@H](C)NC(=O)[C@H](C)NC(=O)[C@H](CCCCN)NC(=O)[C@H](CCCCN)NC(=O)[C@H](CCCNC(=N)N)NC(=O)[C@@H](N)CCCNC(=N)N)C(C)C)C(C)C)C(=O)N[C@@H](CC(C)C)C(=O)N[C@@H](C)C(=O)N1CCC[C@H]1C(=O)O [EB] (H-RRKKAAVALLPAVLLALLAP-OH) | 6.30

###

test: MTS assay; details: human, CEMx174 cells (T-B hybridoma)
Peptide text beside a SMILES is read from it.

compound | EC50 [µM]
CC(C)C[C@H](NC(=O)[C@H](C)NC(=O)[C@H](CC(C)C)NC(=O)[C@H](CC(C)C)NC(=O)[C@@H](NC(=O)[C@H](C)NC(=O)[C@@H]1CCCN1C(=O)[C@H](CC(C)C)NC(=O)[C@H](CC(C)C)NC(=O)[C@H](C)NC(=O)[C@@H](NC(=O)[C@H](C)NC(=O)[C@H](C)NC(=O)[C@H](CCCCN)NC(=O)[C@H](CCCCN)NC(=O)[C@H](CCCNC(=N)N)NC(=O)[C@@H](N)CCCNC(=N)N)C(C)C)C(C)C)C(=O)N[C@@H](CC(C)C)C(=O)N[C@@H](C)C(=O)N1CCC[C@H]1C(=O)O [EB] (H-RRKKAAVALLPAVLLALLAP-OH) | 50
